# systemUnderTest: TYK2 (Homo sapiens, UniProt P29597)
# Sequence (P29597 whole entry): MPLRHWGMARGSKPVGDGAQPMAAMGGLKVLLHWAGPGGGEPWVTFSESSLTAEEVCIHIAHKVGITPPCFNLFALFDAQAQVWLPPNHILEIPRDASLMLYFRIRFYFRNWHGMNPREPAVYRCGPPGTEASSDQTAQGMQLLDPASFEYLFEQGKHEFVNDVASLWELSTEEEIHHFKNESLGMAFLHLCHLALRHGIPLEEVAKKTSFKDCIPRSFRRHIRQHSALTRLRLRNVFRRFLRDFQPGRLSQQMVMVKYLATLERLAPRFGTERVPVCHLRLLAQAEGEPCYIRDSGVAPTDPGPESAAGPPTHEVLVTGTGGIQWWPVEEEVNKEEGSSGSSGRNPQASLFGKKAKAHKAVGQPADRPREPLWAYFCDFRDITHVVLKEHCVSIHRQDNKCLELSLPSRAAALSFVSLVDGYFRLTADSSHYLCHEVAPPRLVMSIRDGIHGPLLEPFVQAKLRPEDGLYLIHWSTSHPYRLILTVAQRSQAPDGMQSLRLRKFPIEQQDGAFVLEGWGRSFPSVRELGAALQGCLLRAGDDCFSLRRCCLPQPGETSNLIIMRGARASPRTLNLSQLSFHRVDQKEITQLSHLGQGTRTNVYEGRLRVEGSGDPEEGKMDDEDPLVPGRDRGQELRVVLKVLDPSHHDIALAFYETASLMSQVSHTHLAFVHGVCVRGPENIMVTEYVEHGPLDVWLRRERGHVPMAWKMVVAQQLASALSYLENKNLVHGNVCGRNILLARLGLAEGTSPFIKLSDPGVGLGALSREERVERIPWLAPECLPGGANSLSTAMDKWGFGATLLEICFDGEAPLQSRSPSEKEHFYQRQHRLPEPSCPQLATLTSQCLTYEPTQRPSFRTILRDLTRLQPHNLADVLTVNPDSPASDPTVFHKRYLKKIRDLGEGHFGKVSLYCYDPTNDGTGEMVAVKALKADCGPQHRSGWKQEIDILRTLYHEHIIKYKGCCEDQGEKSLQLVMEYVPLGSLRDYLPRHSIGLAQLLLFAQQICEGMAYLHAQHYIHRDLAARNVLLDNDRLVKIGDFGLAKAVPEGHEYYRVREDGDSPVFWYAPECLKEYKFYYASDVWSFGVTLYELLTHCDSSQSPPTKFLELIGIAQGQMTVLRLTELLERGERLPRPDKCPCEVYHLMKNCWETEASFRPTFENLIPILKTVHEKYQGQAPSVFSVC
# runDescription: TYK2 degradation MSD assay in OCI-LY10 cells
# Format: cell-based
# Design: endogenous in cells; host or cells: EBV-B cells
# testParameters: 4 to 24 hours incubation, read-out: TYK2 MSD DC50 rating in OCI-LY10
Parameter: DC50. Scope: all listed entries.

compound	DC50
CNc1cc(-c2cnn(C3CCN(C(=O)NCCCCCCc4cccc5c4n(C)c(=O)n5C4CCC(=O)NC4=O)CC3)c2)nn2c(C(=O)N[C@@H]3C[C@@H]3F)cnc12 (some centres unmarked)	> 100 nM
CNC(=O)c1cnc(Nc2ccc(C(=O)NCCCCCCc3cccc4c3n(C)c(=O)n4C3CCC(=O)NC3=O)cn2)cc1Nc1cccc(-c2ncc(F)cn2)c1OC (centres unmarked)	> 100 nM
CNc1cc(Nc2cccn(-c3ccc(CN4CC5(C4)CN(c4ccc(-c6ccc7c(c6)n(C)c(=O)n7C6CCC(=O)NC6=O)cc4)C5)cn3)c2=O)nn2c(C(=O)N[C@@H]3C[C@@H]3F)cnc12 (some centres unmarked)	< 1 nM
CNc1cc(Nc2cccc(-c3ccc(CN4CCN(c5ccc(-c6ccc7c(c6)n(C)c(=O)n7C6CCC(=O)NC6=O)cc5)CC4)cn3)c2)nn2c(C(=O)NC3CC3OC)cnc12 (centres unmarked)	1 to 10 nM

We next turn to a different compound, shown below.
Request: Quickly give me recorded DC50 for CNc1cc(Nc2cccn(-c3ccc(C(=O)N[C@H]4CC[C@H](CN(C)C5CCN(Cc6cccc7c6n(C)c(=O)n7C6CCC(=O)NC6=O)CC5)CC4)cn3)c2=O)nn2c(C(=O)N[C@@H]3C[C@@H]3F)cnc12 (some centres unmarked)
Result: < 1 nM

* * *

# systemUnderTest: TYK2 (Homo sapiens, UniProt P29597)
# runDescription: TYK2 degradation MSD assay in OCI-LY10 cells
# Assay type: cell-based
# Design: endogenous in cells; host or cells: EBV-B cells
# testParameters: 4 to 24 hours incubation, read-out: TYK2 MSD DC50 rating in OCI-LY10
observable: DC50

molecule	observable	result
CNc1cc(-c2ccc(C(=O)NCCCCCCc3cccc4c3n(C)c(=O)n4C3CCC(=O)NC3=O)cc2)nn2c(C(=O)N[C@@H]3C[C@@H]3F)cnc12 (some centres unmarked)	DC50	> 0.1 µM
CNc1cc(Nc2cccc(CN3CCC(OCC#Cc4cccc5c4n(C)c(=O)n5C4CCC(=O)NC4=O)CC3)c2)nn2c(C(=O)NC3CC3)cnc12 (centres unmarked)	DC50	0.001 to 0.01 µM
CNc1cc(Nc2cccc(-c3ccc(CN4CCN(c5ccc(-c6ccc7c(c6)n(C)c(=O)n7C6CCC(=O)NC6=O)cc5)CC4)cn3)c2OC)nn2ccnc12 (centres unmarked)	DC50	> 0.1 µM
CNC(=O)c1cnc(Nc2ccc(CN3CC(C)(Cc4ccc5c(c4)n(C)c(=O)n5C4CCC(=O)NC4=O)C3)cn2)cc1Nc1cccc(-c2ncc(F)cn2)c1OC (centres unmarked)	DC50	> 0.1 µM
CNc1cc(N2CCc3c(-c4ccc(CN5CCN([C@H]6CC[C@H](c7ccc(-c8ccc9c(c8)n(C)c(=O)n9C8CCC(=O)NC8=O)cc7)CC6)CC5)cn4)cccc32)nn2c(C(=O)N[C@@H]3CC3F)cnc12 (some centres unmarked)	DC50	0.001 to 0.01 µM

Request: Quickly give me recorded DC50 for CNc1cc(Nc2cccn(-c3ccc(C(=O)N4CCC(N5CCC(N6CCN(c7ccc8c(c7)n(C)c(=O)n8C7CCC(=O)NC7=O)CC6)CC5)CC4)cn3)c2=O)nn2c(C(=O)N[C@@H]3C[C@@H]3F)cnc12 (some centres unmarked)
Result: < 0.001 µM

Request: Quickly give me recorded DC50 for CNc1cc(Nc2cccn(-c3ccc(C(=O)N4CC5(C4)CN(c4ncc(C#Cc6ccc7c(c6)n(C)c(=O)n7C6CCC(=O)NC6=O)cn4)C5)cn3)c2=O)nn2c(C(=O)NC3CC3F)cnc12 (centres unmarked)
Result: > 0.1 µM

Request: Quickly give me recorded DC50 for CNc1cc(Nc2cccc(CN3CC(C)(Cc4ccc5c(c4)n(C)c(=O)n5C4CCC(=O)NC4=O)C3)c2)nn2c(C(=O)NC3CC3)cnc12 (centres unmarked)
Result: > 0.1 µM

Request: Quickly give me recorded DC50 for CNc1cc(Nc2cccc(CN3CC4(C3)CN(c3ncc(C#Cc5ccc6c(c5)n(C)c(=O)n6C5CCC(=O)NC5=O)cn3)C4)c2)nn2c(C(=O)NC3CC3)cnc12 (centres unmarked)
Result: < 0.001 µM

Request: Quickly give me recorded DC50 for CNc1cc(-c2cnn(C3CN(C(=O)NCCCCc4cccc5c4n(C)c(=O)n5C4CCC(=O)NC4=O)C3)c2)nn2c(C(=O)N[C@@H]3C[C@@H]3F)cnc12 (some centres unmarked)
Result: > 0.1 µM

Request: Quickly give me recorded DC50 for CNC(=O)c1cnc(Nc2ccc(CN3CCC(N(C)c4ccc5c(c4)n(C)c(=O)n5C4CCC(=O)NC4=O)CC3)cn2)cc1Nc1cccc(-c2ncc(F)cn2)c1OC (centres unmarked)
Result: > 0.1 µM

* * *

# systemUnderTest: TYK2 (Homo sapiens, UniProt P29597)
# runDescription: TYK2 degradation MSD assay in human PBMC cells
# Type: cell-based
# Parameters: endogenous in cells; host or cells: human PBMC
# testParameters: 4 to 24 hours incubation, read-out: TYK2 MSD DC50 rating in human PBMC
observable: DC50

The following molecules have reported results that may help.
molecule	result
Cn1c(=O)n(C2CCC(=O)NC2=O)c2ccc(-c3ccc(N4CCN(Cc5ccc(-c6cccc(Nc7cc(C8CC8)c8ncc(C(=O)N[C@@H]9C[C@@H]9F)n8n7)c6)nc5)CC4)cc3)cc21 (stereo partly drawn) [Example K484]	> 100 nM
CNc1cc(Nc2cccn(-c3ccc(C(=O)N4CCC45CN(c4ncc(C#Cc6ccc7c(c6)n(C)c(=O)n7C6CCC(=O)NC6=O)cn4)C5)cn3)c2=O)nn2c(C(=O)N[C@@H]3C[C@@H]3F)cnc12 (stereo partly drawn) [Example K376]	> 100 nM

We next turn to a different molecule, shown below.
Request: Quickly give me recorded DC50 for Cn1c(=O)n(C2CCC(=O)NC2=O)c2cccc(C#CCN3CCN(Cc4ccc(-c5cccc(Nc6ccc7ncc(C(=O)NC8CC8)n7n6)c5)nc4)CC3)c21 (stereo not drawn) [Example K433]
Result: > 100 nM

* * *

Parameter: DC50. Scope: all listed entries.
# systemUnderTest: TYK2 (Homo sapiens, UniProt P29597)
# runDescription: TYK2 degradation MSD assay in human PBMC cells
# Format: cell-based
# Design: endogenous in cells; host or cells: human PBMC
# testParameters: 4 to 24 hours incubation, read-out: TYK2 MSD DC50 rating in human PBMC

The following compounds have reported results that may help.
compound	result
CNc1cc(N2CCc3c(-c4ccc(CN5CCN(c6ccc(-c7cccc8c(N9CCC(=O)NC9=O)cncc78)cc6)CC5)cn4)cccc32)nn2c(C(=O)N[C@@H]3C[C@@H]3F)cnc12 (racemic) [Example K546]	> 100 nM
CNc1cc(Nc2cccn(-c3ccc(C(=O)NCCCCCCCCc4cncc(N5CCC[C@H](C(=O)Nc6ccc(=O)n(CC(=O)OC)c6)C5)c4)cn3)c2=O)nn2c(C(=O)N[C@@H]3C[C@@H]3F)cnc12 [Example K599]	> 100 nM
CNc1cc(Nc2cccc(C(=O)NCCCCCCc3cccc4c3n(C)c(=O)n4C3CCC(=O)NC3=O)c2)nn2c(C(=O)N[C@@H]3C[C@@H]3F)cnc12 (some centres unmarked) [Example K250]	< 1 nM

Request: Quickly give me recorded DC50 for Cn1c(=O)n(C2CCC(=O)NC2=O)c2ccc(CCOCCOCCNc3cc(Nc4cccn(-c5ccccn5)c4=O)nn4c(C(=O)N[C@@H]5C[C@@H]5F)cnc34)cc21 (some centres unmarked) [Example K201]
Result: > 100 nM

Request: Quickly give me recorded DC50 for CNC(=O)c1cnc(Nc2ccc(CN3CC4(CCN(c5ccc6c(c5)n(C)c(=O)n6C5CCC(=O)NC5=O)CC4)C3)cn2)cc1Nc1cccc(-c2ncc(F)cn2)c1OC (centres unmarked) [Example K149]
Result: > 100 nM

* * *

# systemUnderTest: TYK2 (Homo sapiens, UniProt P29597)
# runDescription: TYK2 degradation MSD assay in human PBMC cells
# Format: cell-based
# Set-up: endogenous in cells; host or cells: human PBMC
# testParameters: 4 to 24 hours incubation, read-out: TYK2 MSD DC50 rating in human PBMC
Parameter: DC50. Scope: all listed entries.

The following molecules have reported results that may help.
molecule	DC50
CNc1cc(Nc2cccn(-c3ccc(C(=O)N4CCC(N5CCC(N6CCN(c7cccc8c7n(C)c(=O)n8C7CCC(=O)NC7=O)CC6)CC5)CC4)cn3)c2=O)nn2c(C(=O)N[C@@H]3C[C@@H]3F)cnc12 (some centres unmarked)	> 100 nM
CNc1cc(Nc2cccn(-c3ccc(C(=O)N4CCC(CN(C)c5ccc6c(c5)n(C)c(=O)n6C5CCC(=O)NC5=O)CC4)cn3)c2=O)nn2c(C(=O)N[C@@H]3C[C@@H]3F)cnc12 (some centres unmarked)	< 1 nM
CNc1cc(-c2ccc(C3CCN(CC4CCN(c5ccc(-c6ccc7c(c6)n(C)c(=O)n7C6CCC(=O)NC6=O)cc5)CC4)CC3)cc2)nn2c(C(=O)N[C@@H]3C[C@@H]3F)cnc12 (some centres unmarked)	> 100 nM
CNC(=O)c1cnc(NC(=O)NCCCCCCCc2cccc3c2n(C)c(=O)n3C2CCC(=O)NC2=O)cc1Nc1cccc(-c2ncc(F)cn2)c1OC (centres unmarked)	1 to 10 nM

We next turn to a different molecule, shown below.
Request: Please indicate recorded DC50 of CNC(=O)c1cnc(Nc2ccc(C(=O)NCCOCCOCCc3ccc4c(c3)n(C)c(=O)n4C3CCC(=O)NC3=O)cn2)cc1Nc1cccc(-c2ncc(F)cn2)c1OC (centres unmarked) measured with TYK2 (Homo sapiens, UniProt P29597).
Result: 1 to 10 nM
